# Tested on: SK-OV-3
# METHOD: NCI tumour cell line growth inhibition, 48 h
The source made the active and inactive calls. Cut-off read from the data, not from the text of the source: active = GI50 up to about 1.1 µM and inactive = higher.
RECORDED METRIC: GI50

Some solved cases for reference:
[[record]]
compound = "CCC1=[N+](CC)CCN1CC"
reported_value = "> 100 µM (inactive)"

[[record]]
compound = "C=C1C2=C(CCCC2)C(=O)OC12CCCCC2"
reported_value = "> 100 µM (inactive)"

[[record]]
compound = "CCOC(=O)c1sc2[n+](c1C)C(=O)/C(=C/c1ccc([N+](=O)[O-])cc1)S2"
reported_value = "23.8 µM (inactive)"

[[record]]
compound = "O=S(=O)(c1ccc(I)cc1)N(c1ccccc1)S(=O)(=O)C(F)(F)C(F)(F)C(F)(F)C(F)(F)F"
reported_value = "26.4 µM (inactive)"

[[record]]
compound = "COC(OC)[C@@H]1OC[C@H](n2ccc(=O)[nH]c2=O)[C@H]1O"
reported_value = "> 100 µM (inactive)"


Q: Could you share which GI50 value was measured for NCCCCCC(CCN)SCC1OC(n2cnc3c(N)ncnc32)C(O)C1O (stereo unspecified) ?
Ans: 927 µM (inactive)

Q: Could you share which GI50 value was measured for C[C@H]1ON2CCC[C@@H]2[C@@H]1C(=O)N1C2CC3CCC2(CS1(=O)=O)C3(C)C (stereo partly specified) ?
Ans: > 100 µM (inactive)

Q: Could you share which GI50 value was measured for S=C1Nc2ccccc2SC1c1ccccc1 (stereo unspecified) ?
Ans: 35.8 µM (inactive)

Q: Could you share which GI50 value was measured for `CCN(CC)CCOc1ccccc1/C=C/c1noc2ccccc12` ?
Ans: 20 µM (inactive)

Q: Could you share which GI50 value was measured for `CN(C)Cc1c(O)ccc2c1c1c(n2C)C(=O)c2ccccc2C1=O` ?
Ans: 20.2 µM (inactive)

Q: Could you share which GI50 value was measured for `c1ccc2c(NCCCCCCCCNc3cccc4ccccc34)cccc2c1` ?
Ans: > 100 µM (inactive)

* * *

The reader will find reported GI50 values listed item by item below.
# Test system: UACC-62
# METHOD: NCI tumour cell line growth inhibition, 48 h
Calls of active or inactive are those of the source. Rule as the data show it: active = GI50 up to about 1.1 µM and inactive = higher. Where a SMILES comes first, the peptide text is derived from it. [ ]: non-standard residue; d: D form. Hiv = CC(C)[C@H](O)C(=O)O

[[record]]
molecule = "O=C1CN(c2ccccc2)C(=O)CN1NCNN1CC(=O)N(c2ccccc2)CC1=O"
reported_value = "> 100 µM (inactive)"

[[record]]
molecule = "C/C=C\\C(CC(=O)NCCc1c[nH]c2ccccc12)CC(=O)OC (stereo unspecified)"
reported_value = "> 100 µM (inactive)"

[[record]]
molecule = "C#C/C=C\\CCCCCCCCCCCCCC/C=C\\CCCCC#CC(O)C#CCCCC/C=C\\CCCCCC/C=C/C(O)C#C (stereo unspecified)"
reported_value = "11.8 µM (inactive)"

[[record]]
molecule = "COC(=O)C1=C(C)C(=O)[C@H]2C(C(=O)OC)CCCC[C@@H]12 (stereo partly specified)"
reported_value = "> 100 µM (inactive)"

[[record]]
molecule = "CC(C)=C[C@@H]1C[C@H](C)c2c(O)cc(C)c3c2C1=C(C)C(=O)C3=O"
reported_value = "14.7 µM (inactive)"

[[record]]
molecule = "Cc1cccc2c1CCC21OC(=O)c2c1ccc1ccccc21 (stereo unspecified)"
reported_value = "40.3 µM (inactive)"


Q: Could you share which GI50 value was measured for `O=Cc1ccc2c(c1)CC1(Cc3ccccc3C1)C2` ?
Ans: 2.38 µM (inactive)

Q: Could you share which GI50 value was measured for `CCOc1ccc(/N=N/c2ccc3oc(=O)c(/C(C)=N/NC(=O)CC(=O)Nc4cccc(OC)c4)cc3c2)cc1` ?
Ans: 13.2 µM (inactive)

Q: Could you share which GI50 value was measured for `OCc1c[te]c(-c2ccccc2)c1` ?
Ans: 31.3 µM (inactive)

Q: Could you share which GI50 value was measured for `Cn1cc(C=C(C#N)C#N)c(=O)n(C)c1=O` ?
Ans: > 100 µM (inactive)

Q: Could you share which GI50 value was measured for CCCC(=O)OC1CC(n2cc(F)c(=O)[nH]c2=O)OC1COP(=O)(OCC(Cl)(Cl)Cl)OCC(Cl)(Cl)Cl (stereo unspecified) ?
Ans: 2.06 µM (inactive)

Q: Could you share which GI50 value was measured for Nc1ncnc2c1ncn2C1OC(COP(=O)(O)CP(=O)(O)O)C(O)C1O (stereo unspecified) ?
Ans: > 100 µM (inactive)

Q: Could you share which GI50 value was measured for CC(C)[C@@H]1OC(=O)[C@@H](C)NC(=O)[C@@H]2CCCN2C1=O (cyclo([Hiv]-Pro-[dA])) ?
Ans: > 100 µM (inactive)

Q: Could you share which GI50 value was measured for Cc1[nH]c(=O)[nH]c(=O)c1/C=C/C(=O)NC(CO)CC(C)C (stereo unspecified) ?
Ans: > 375 µM (inactive)

* * *

# Test system: DU-145
# METHOD: NCI tumour cell line growth inhibition, 48 h
Calls of active or inactive are those of the source. No stated cut-off is given here; in the data, active = GI50 up to about 1.1 µM and inactive = higher.
The reader will find reported GI50 values listed item by item below.

[[record]]
compound = "CCC1=[N+](CC)CCN1CC"
recorded_metric = "GI50"
reported_value = "> 100 µM (inactive)"


Q: Could you share which GI50 value was measured for CCCC(=O)OCC1OC(n2cc(F)c(=O)[nH]c2=O)C(F)C1OC(=O)CCC (configuration not stated) ?
Ans: 15.3 µM (inactive)

Q: Could you share which GI50 value was measured for `CCOC(=O)C(Cc1c2ccccc2cc2ccccc12)(NC(C)=O)C(=O)OCC` ?
Ans: > 92.5 µM (inactive)

* * *

# System: MOLT-4
# METHOD: NCI tumour cell line growth inhibition, 48 h
The source made the active and inactive calls. No stated cut-off is given here; in the data, active = GI50 up to about 1.1 µM and inactive = higher.
Answer with one of the outcomes given here: active, inactive

Illustrative cases are given below, each with its answer.
[[record]]
molecule = "CN(C)/N=N/c1ccc(S(N)(=O)=O)cc1"
test_system = "MOLT-4"
assigned_label = "inactive"

[[record]]
molecule = "CC(Nc1ncc2c(n1)-c1ccccc1OC2)C(=O)O (configuration not stated)"
test_system = "MOLT-4"
assigned_label = "inactive"

[[record]]
molecule = "CC(=O)Oc1ccc2oc(=O)cc(C)c2c1"
test_system = "MOLT-4"
assigned_label = "inactive"


# input for lookup
Q: Please let me know the test result on file for `Cc1ccc(NC(=O)c2cc(S(=O)(=O)Nc3n[nH]c(=O)n3-c3ccccc3)c(S)cc2Cl)cc1` .
Ans: inactive

* * *

The reader will find reported GI50 values listed item by item below.
# Test system: MOLT-4
# METHOD: NCI tumour cell line growth inhibition, 48 h
The source made the active and inactive calls. Rule as the data show it: active = GI50 up to about 1.1 µM and inactive = higher.

Some solved cases for reference:
[[record]]
compound = "O=c1[nH]cnc2c1ncn2[C@@H]1C[C@@H]1CO"
recorded_metric = "GI50"
reported_value = "> 100 µM (inactive)"

[[record]]
compound = "CC(=O)/C(=C/n1c(=S)sc2ccccc21)C(=O)Nc1ccccc1C"
recorded_metric = "GI50"
reported_value = "> 100 µM (inactive)"

[[record]]
compound = "C=CCC1(CC)C(=O)NC(=O)NC1=O"
recorded_metric = "GI50"
reported_value = "> 100 µM (inactive)"

[[record]]
compound = "O=[N+]([O-])c1ccc(C2CC(c3ccccc3Cl)=Nc3ccccc3[S+]2[O-])cc1 (configuration not stated)"
recorded_metric = "GI50"
reported_value = "1.9 µM (inactive)"

[[record]]
compound = "CCOC(=O)/C(C#N)=C\\C=C1/C=CN=C2NCCN21"
recorded_metric = "GI50"
reported_value = "> 100 µM (inactive)"


Q: Could you share which GI50 value was measured for O=C(OCCN1CCCCC1)C(c1ccccc1)C1(O)CCSCC1 (configuration not stated) ?
Ans: > 100 µM (inactive)

Q: Could you share which GI50 value was measured for `NC(=O)c1cc2ccccc2c(/N=N/c2ccccc2)c1O` ?
Ans: 76.7 µM (inactive)

Q: Could you share which GI50 value was measured for `NC(=S)SCCC(=O)O` ?
Ans: > 100 µM (inactive)

Q: Could you share which GI50 value was measured for CCOP(=O)(O)CC1OC(CO)C(O)C1O (configuration not stated) ?
Ans: > 100 µM (inactive)

Q: Could you share which GI50 value was measured for `O=c1[nH]nc(Cc2ccc(Cl)cc2)n1/N=C/c1ccco1` ?
Ans: > 100 µM (inactive)

Q: Could you share which GI50 value was measured for `c1ccc(-c2cnc(-c3ccc(-c4ncc(-c5ccccc5)o4)cc3)o2)cc1` ?
Ans: > 100 µM (inactive)

Q: Could you share which GI50 value was measured for `COC(=O)/C(C#N)=C(/NCCN)Nc1ccccc1` ?
Ans: > 100 µM (inactive)

* * *

# Test system: OVCAR-3
# METHOD: NCI tumour cell line growth inhibition, 48 h
Calls of active or inactive are those of the source. Rule as the data show it: active = GI50 up to about 1.1 µM and inactive = higher.
RECORDED METRIC: GI50

Some solved cases for reference:
[[record]]
compound = "CS(=O)(=O)OCCN(CCOS(C)(=O)=O)c1ccc(/C=N/c2cccc(Cl)c2)cc1"
reported_value = "12.1 µM (inactive)"

[[record]]
compound = "N#CC1CC2(C(=O)C1=O)c1ccccc1-c1ccccc12 (stereo not given)"
reported_value = "87.7 µM (inactive)"

[[record]]
compound = "O=c1cc(CN2CCCCC2)nc2ccc3c(O)cc(CN4CCCCC4)nc3n12"
reported_value = "> 100 µM (inactive)"

[[record]]
compound = "O=C1c2cccc(O)c2C(=O)c2c(OC3OC(CO)C(O)C(O)C3O)cccc21 (stereo not given)"
reported_value = "31.4 µM (inactive)"


Next compound, GI50 to be filled in.
Q: Could you share which GI50 value was measured for Cc1cccc2c1CC(C1OC(=O)c3c(C)cccc31)C2=O (stereo not given) ?
Ans: > 100 µM (inactive)
